System: HCT116 multicellular tumor spheroids
Assay: Resazurin assay, HCT116 3D spheroids
Assay type: cell-based, human
Details: 96 h, spheroids
Items are presented alongside their recorded IC50.
measurement_name: IC50 (µM)

Cc1occc(=S)c1[O-].F[P-](F)(F)(F)(F)F.[W+4].c1cc[cH-]c1.c1cc[cH-]c1: 158
F[P-](F)(F)(F)(F)F.[O-]c1c(-c2ccc(Cl)cc2)oc2ccccc2c1=S.[W+4].c1cc[cH-]c1.c1cc[cH-]c1: 15
CCc1occc(=S)c1[O-].F[P-](F)(F)(F)(F)F.[W+4].c1cc[cH-]c1.c1cc[cH-]c1: 69
F[P-](F)(F)(F)(F)F.O=c1c([O-])c(-c2ccc(Cl)cc2)oc2ccccc12.[W+4].c1cc[cH-]c1.c1cc[cH-]c1: 21
